- assayed.target: GPNMB-V5His (recombinant human GPNMB extracellular domain with C-terminal V5-His tag) (human) (UniProt Q14956)
- method.notes: SPR (Biacore), mAb on protein A, GPNMB 880 nM
Examples of binders with documented koff follow.
Expressed in s⁻¹, but write only the number.

- Mab1.10.2 (antibody, human IgG2, V domains shown) VH: QVQLQESGPGLVKPSETLSLTCTVSGDSISNYYWSWIRQPPGKGLEWIGYFYYSGSTNYNPSLKSRVTISVDTSKNQFSLKLSSVTAADTAVYYCARDRGWADYWGQGTLVTVSS VL: EIVLTQSPGTLSLSPGERATLSCRTSQSISSSYLAWYQQKPGQVPRLLIYGASSRATGIPDRFSGSGSGTDFTLTISRLEPEDFAVYYCQQYGSSITFGQGTRLEIKR: 0.000466
- GPNMB antibody (1.10.1) (antibody, V domains shown) VH: QVQLQESGPGLVKPSETLSLTCTVSGDSISNYYWSWIRQPPGKGLEWIGYFYYSGSTNYNPSLKSRVTISVDTSKNQFSLKLSSVTAADTAVYYCARDRGWADYWGQGTLVTVSS VL: EIVLTQSPGTLSLSPGERATLSCRTSQSISSSYLAWYQQKPGQVPRLLIYGASSRATGIPDRFSGSGSGTDFTLTISRLEPEDFAVYYCQQYGSSITFGQGTRLEIKR: 0.000885

Let us examine a further case.
koff reported for this binder Mab1.7.1 (antibody, human IgG2, V domains shown) VH: QVQLQESGPGLVKPSQTLSLTCTVSGGSISSANYYWTWIRQHPGKGLEWIGYIYYSGSTYCNPSLKSRVIISVDTSKNQFSLKLSSVTAADTAVYYCARGYNWNYFDYWGQGTLVTVSS VL: DIVMTQSPATLSVSPGERATLSCRASQSVSSNLAWYQERPGQAPRLLIYGASTRATGIPARFSGSGSGTEFTLTISSLQSEDFAVYYCQQYNKWPPWTFGQGTKVEIER : 0.00144
